B1: Lysozyme C, milk isozyme, P81708 (parent)
chain: KIFSKCELARKLKSMGMDGFHGYSLANWVCMAEYESNFNTQAFNGRNSNGSSDYGIFQLNSKWWCKSNSHSSANACNIMCSKFLDDNIDDDIACAKRVVKDPNGMSAWVAWVKHCKGKDLSKYLASCNL

Variants of: B1
Run conditions: Canis lupus familiaris; pH 4.5; 66.4 °C; Thermal; DSC; sodium acetate 50 mM; reversible: yes; structure 1EL1; whole UniProt chain shown
Assay endpoint: unfolding enthalpy (calorimetric) (kJ/mol)

# Mutation code, Assay endpoint, Assay value
data = [
    ("H21G", "unfolding enthalpy (calorimetric)", 122),
    ("V109K", "unfolding enthalpy (calorimetric)", 134),
    ("A93S", "unfolding enthalpy (calorimetric)", 134),
    ("I56L", "unfolding enthalpy (calorimetric)", 133),
]
